Give composite z-score for every item shown.
study.target: Fibroblast growth factor 10 (Homo sapiens) (UniProt O15520)
Sequence (O15520 whole entry, looked up): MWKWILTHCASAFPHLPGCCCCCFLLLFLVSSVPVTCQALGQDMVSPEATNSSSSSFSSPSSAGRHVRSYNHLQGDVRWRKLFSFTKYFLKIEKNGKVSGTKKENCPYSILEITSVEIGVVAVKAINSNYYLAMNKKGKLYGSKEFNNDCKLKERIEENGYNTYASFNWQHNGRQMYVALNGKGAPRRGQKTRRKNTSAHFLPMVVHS
assay.comment: FGF10 binders on small-molecule microarrays, primary screen, biochemical, small-molecule microarray, 635 nm fluorescence (AID 1102)
test.context: FGF10 binding, fluorescence 635 nm, higher = more signal
Please respond with just the number, no unit label.

Data request: For the compound `CC(C)C[C@@H]1NC(=O)[C@@H]2C[C@H](C(=O)NCCCCCNC(=O)CS)[C@H](c3cccc(OCCO)c3)N2C1=O` , what composite z-score is on record?
Data returned: 0.654

Data request: For the compound `C=C(CCCC)/C(=C/C[C@H](OC(=O)c1ccncc1)c1ccc(CO)o1)c1cnc2ccccc2c1` , what composite z-score is on record?
Data returned: 1.09

Data request: For the compound `COc1ccc([Si](C)(C)[C@@H]2[C@@H](CCn3cc(CCO)nn3)O[C@]3(C(=O)N(Cc4ccc(N5C(=O)c6cccc7cccc5c67)cc4)c4ccccc43)[C@H]2C)cc1` , what composite z-score is on record?
Data returned: 0.266

Data request: For the compound `Cc1ccc(N2C(=O)c3ccccc3[C@](C)(C(=O)NC3CC3)[C@@H]2c2ccc(CO)cc2)nc1` , what composite z-score is on record?
Data returned: -0.0779

Data request: For the compound `COC(=O)[C@@]1(CCC(=O)OC(C)(C)C)COC(c2ccc(OCCCO)cc2)=N1` , what composite z-score is on record?
Data returned: -1.2

Data request: For the compound `COc1ccc(C(=O)Nc2cccc(CN3C(=O)[C@@]4(O[C@@H](CCO)[C@H]([Si](C)(C)c5ccc(OC)cc5)[C@H]4C)c4ccccc43)c2)cc1` , what composite z-score is on record?
Data returned: 0.0414

Data request: For the compound C[C@@H](OCc1ccccc1)C1NC(=O)[C@@]23C(=O)N[C@@H](Cc4ccccc4)C2[C@H](C)[C@@]2(C)O[C@H]2C3/C=C/C/C=C\CNC(=O)[C@@H]2CCCN2C1=O (some centres not stated) , what composite z-score is on record?
Data returned: 0.097

Data request: For the compound `CCOC(=O)C[C@H]1[C@H](OC(=O)c2ccc(C(=O)c3ccccc3)cc2)[C@@H](NC(=O)Cc2ccc(OC)cc2)c2cc(OCCCO)ccc2N1C(=O)Cc1ccc(OC)cc1` , what composite z-score is on record?
Data returned: 0.371

Data request: For the compound `NCCCCCCNC(=O)[C@@H]1C[C@@H]2C(=O)N[C@@H](Cc3ccccc3)C(=O)N2[C@@H]1c1ccc(O)cc1` , what composite z-score is on record?
Data returned: 0.25

Data request: For the compound `O=C(N1CCCCC1)[C@@]1(Cc2ccccc2)N=C(c2ccc(OCCCO)cc2)O[C@H]1c1ccccc1` , what composite z-score is on record?
Data returned: 0.942

Data request: For the compound `C=C(/C(=C/C[C@H](OC(=O)c1ccncc1)c1cccc(OCCO)c1)c1cc(C(=O)OC)ccc1OC)C(C)C` , what composite z-score is on record?
Data returned: 0.493

Data request: For the compound C=CCC(OC(C)=O)[C@@H]1[C@@H](N(Cc2ccc(-c3cccc(C(F)(F)F)c3)o2)C(=O)c2ccc(-c3ccccc3)cc2)c2cc(OCCCO)ccc2N1C(=O)Cc1ccc(OC)cc1 (some centres not stated) , what composite z-score is on record?
Data returned: -0.0385

Data request: For the compound CC(C)C[C@@H]1NC(=O)[C@@]23C(=O)N[C@@H](Cc4ccccc4)C2[C@H](C)[C@@]2(C)O[C@H]2C3/C=C/C/C=C\CNC(=O)[C@H](Cc2ccccc2)NC1=O (some centres not stated) , what composite z-score is on record?
Data returned: 0.286

Data request: For the compound `C=CCN1C(=O)[C@]2(O[C@H](CCn3cc([C@H](O)c4ccccc4)nn3)[C@@H]([Si](C)(C)c3ccc(OC)cc3)[C@@H]2C)c2cc(N3CCOC3=O)ccc21` , what composite z-score is on record?
Data returned: -0.57

Data request: For the compound `O=C(NCC(F)(F)F)[C@@H]1c2ccccc2C(=O)N(C2Cc3ccccc3C2)[C@H]1c1ccc(CO)cc1` , what composite z-score is on record?
Data returned: -0.691

Data request: For the compound `C=CCN1C(=O)[C@@]2(O[C@@H](CCn3cc(CCO)nn3)[C@H]([Si](C)(C)c3ccc(OC)cc3)[C@H]2C)c2cc(NC(=O)c3ccc(OC)cc3)ccc21` , what composite z-score is on record?
Data returned: 0.402

Data request: For the compound `C=C(COC)/C(=C/C[C@H](OC(C)=O)c1cccc(OCCO)c1)c1cc(C(=O)OC)ccc1OC` , what composite z-score is on record?
Data returned: 1.21

Data request: For the compound `Cc1ccc(S[C@]2(C(=O)NCCN3CCOCC3)CC(=O)N(Cc3cc(C(F)(F)F)cc(C(F)(F)F)c3)[C@@H]2c2ccc(CO)cc2)cc1` , what composite z-score is on record?
Data returned: -0.703

Data request: For the compound `CC(C)C(=C=CC[C@@H](O)c1ccc(CO)o1)CCO` , what composite z-score is on record?
Data returned: 0.9

Data request: For the compound CC(C)C(CO)N1C(=O)[C@@H]2[C@H]3C(=O)OCC=C[C@H]3OC23C=CCN(Cc2ccccc2)C(=O)[C@@H]13 (some centres not stated) , what composite z-score is on record?
Data returned: -0.367

Data request: For the compound C=CCC(OC(C)=O)[C@@H]1[C@@H](N(Cc2ccc(-c3ccccc3)cc2)C(=O)c2ccc(-c3ccccc3)cc2)c2cc(OCCCO)ccc2N1C(=O)c1ccc(-c2ccccc2)cc1 (some centres not stated) , what composite z-score is on record?
Data returned: -0.132

Data request: For the compound `C=C(/C(=C/C[C@H](OC(C)=O)c1cccc(OCCO)c1)c1cc(C(=O)OC)ccc1OC)C(C)C` , what composite z-score is on record?
Data returned: 0.306
